biological target: Melanocortin receptor 4 (Homo sapiens)
Sequence (P32245 whole entry): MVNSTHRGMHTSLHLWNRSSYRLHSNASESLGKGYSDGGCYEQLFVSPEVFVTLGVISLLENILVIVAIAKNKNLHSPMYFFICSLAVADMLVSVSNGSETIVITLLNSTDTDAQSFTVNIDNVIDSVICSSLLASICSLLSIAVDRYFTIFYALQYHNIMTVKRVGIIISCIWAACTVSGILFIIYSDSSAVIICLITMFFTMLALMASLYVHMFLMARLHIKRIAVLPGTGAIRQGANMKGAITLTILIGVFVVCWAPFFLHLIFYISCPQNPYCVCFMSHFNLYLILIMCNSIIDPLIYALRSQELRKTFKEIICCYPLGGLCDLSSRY
Documented Ki across a set of molecules
Write the number in nM without appending the unit.

Below: 3 molecules and their reported Ki.
{"molecule": "CCN(CC)CC(c1ccccc1F)N1CCN(C(=O)[C@@H](Cc2ccc(Cl)cc2)NC(=O)CC2(C)NCc3ccccc32)CC1 (stereo partly specified)", "Ki / nM": 73.7}
{"molecule": "CCN(CC)CC(c1ccccc1Cl)N1CCN(C(=O)[C@@H](Cc2ccc(Cl)cc2)NC(=O)CC2NCc3ccccc32)CC1 (stereo in doubt; 41b)", "Ki / nM": 5.3}
{"molecule": "CCN(CC)CC(c1ccccc1F)N1CCN(C(=O)[C@@H](Cc2ccc(Cl)cc2)NC(=O)c2cc3ccccc3cn2)CC1 (stereo partly specified)", "Ki / nM": 95.6}

State the recorded Ki for this entry: CCN(CC)CC(c1ccccc1F)N1CCN(C(=O)[C@@H](Cc2ccc(Cl)cc2)NC(=O)CC2c3ccccc3CN2C)CC1 (stereo partly specified) 17.3

State the recorded Ki for this entry: CCN(CC)CC(c1ccccc1Cl)N1CCN(C(=O)[C@@H](Cc2ccc(Cl)cc2)NC(=O)CC2NCc3ccccc32)CC1 (stereo in doubt; 41a) 107

State the recorded Ki for this entry: CCN(CC)CC(c1ccccc1F)N1CCN(C(=O)[C@@H](Cc2ccc(Cl)cc2)NC(=O)CC2NCCc3ccccc32)CC1 (stereo partly specified) 10.4

----------
target: Melanocyte-stimulating hormone receptor (Homo sapiens)
Sequence (Q01726 whole entry): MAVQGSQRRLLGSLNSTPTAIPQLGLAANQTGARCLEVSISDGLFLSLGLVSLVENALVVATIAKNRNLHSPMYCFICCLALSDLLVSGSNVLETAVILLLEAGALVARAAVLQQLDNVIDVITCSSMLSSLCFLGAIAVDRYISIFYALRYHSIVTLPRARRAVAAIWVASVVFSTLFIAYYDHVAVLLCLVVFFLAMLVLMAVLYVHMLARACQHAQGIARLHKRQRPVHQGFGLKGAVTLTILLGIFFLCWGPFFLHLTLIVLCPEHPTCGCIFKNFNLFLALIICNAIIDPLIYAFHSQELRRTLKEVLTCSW
Documented pKi across a set of compounds
Lab note: report pKi as minus log10 of the concentration in molar units, number only.

Below: 2 compounds and their reported pKi.
{"compound": "CCN(CC)CC(c1ccccc1F)N1CCN(C(=O)[C@@H](Cc2ccc(Cl)cc2)NC(=O)CC2NCCc3ccccc32)CC1 (stereo partly drawn)", "measured-attribute": "pKi", "experimental-value": 5.52}
{"compound": "CCN(CC)CC(c1ccccc1F)N1CCN(C(=O)[C@@H](Cc2ccc(Cl)cc2)NC(=O)c2cc3ccccc3cn2)CC1 (stereo partly drawn)", "measured-attribute": "pKi", "experimental-value": 5.15}

Here's the next entry for you.
State the recorded pKi for this entry: CCN(CC)CC(c1ccccc1F)N1CCN(C(=O)[C@@H](Cc2ccc(Cl)cc2)NC(=O)CC2NCc3ccccc32)CC1 (stereo partly drawn) 5.22
